Catalogue of melting point readings, one per entry.

| molecule | melting point |
| --- | --- |
| Cc1cnc(CO)cc1Nc1nccc(-c2cc(C#N)c3c(c2)[C@@](C)(CO)CN3)n1 | 245 °C |
| Cc1cnc(OCC2CN(C)CCO2)c(Nc2nccc(-c3cc(C#N)c4c(c3)[C@@](C)(CO)CN4)n2)c1 (single isomer, unassigned) [Compound 152] | 140 °C |
| CC1(CO)CNc2c(C#N)cc(-c3ccnc(Nc4cc(Cl)cnc4Cl)n3)cc21 (stereo not shown) | 261 °C |
| Cc1ccnc(Nc2nccc(-c3cc(C#N)c4c(c3)C(C)(CO)CN4)n2)n1 (stereo not shown) | 227 °C |

----------
System: JJN-3 (NIK translocated) multiple myeloma cells
test_details: Antiproliferative activity on JJN-3 multiple myeloma cells (CellTiter-Glo)
Format: cell-based, human
condition_details: Homo sapiens, JJN-3, 96 h, JJN-3 (NIK translocated) cells, 96 hr treatment, averaged values, read-out: JJN-3 Proliferation inhibition (IC50 (nM))
Label scheme for IC50: low = under 100 nM, middle = from 100 nM up to 700 nM, high = 700 nM and over

| compound | label_value |
| --- | --- |
| C[C@]1(CO)CNc2c(C#N)cc(-c3ccnc(Nc4cc(C#N)cnc4OCC4CC4)n3)cc21 | middle |
| Cc1ncc(C2CCN(C)CC2)cc1Nc1nccc(-c2cc(C#N)c3c(c2)[C@@](C)(CO)CN3)n1 | high |
| COCCOc1ncc(C)cc1Nc1nccc(-c2cc(C#N)c3c(c2)[C@@](C)(CO)CN3)n1 | middle |
| COc1ncccc1Nc1nccc(-c2cc(C#N)c3c(c2)C(C)(COCCN2CCOCC2)CN3)n1 (stereo not drawn) | high |
| CC(C)(CO)Oc1ncc(C#N)cc1Nc1nccc(-c2cc(C#N)c3c(c2)[C@@](C)(CO)CN3)n1 | middle |
| CC(C)(O)COc1ncc(C#N)cc1Nc1nccc(-c2cc(C#N)c3c(c2)[C@@](C)(CO)CN3)n1 | low |
| COc1ncccc1Nc1nccc(-c2cc(C#N)c3c(c2)C(C)(CNC2CC2)CN3)n1 (stereo not drawn) | high |
| COc1ncc(Cl)cc1Nc1nccc(-c2cc(C#N)c3c(c2)C(C)(COCCN2CCCC2)CN3)n1 (stereo not drawn) | middle |
| COc1ncc(Cl)cc1Nc1ncc(F)c(-c2cc(C#N)c3c(c2)[C@@](C)(CO)CN3)n1 | middle |
| C[C@]1(CO)CNc2c(C#N)cc(-c3ccnc(Nc4cccnc4OC[C@H]4CCCO4)n3)cc21 | middle |
| COCCNc1nc(OC)c(Nc2nccc(-c3cc(C#N)c4c(c3)[C@@](C)(CO)CN4)n2)cc1Cl | low |
| COCCOc1ccncc1Nc1nccc(-c2cc(C#N)c3c(c2)[C@@](C)(CO)CN3)n1 | high |
| Cc1cnc(OCC2CN(C)CCO2)c(Nc2nccc(-c3cc(C#N)c4c(c3)[C@@](C)(CO)CN4)n2)c1 (single isomer, unassigned) | low |
| Cc1cnc(C2CCOCC2)c(Nc2nccc(-c3cc(C#N)c4c(c3)[C@@](C)(CO)CN4)n2)c1 | high |

----------
tgt: recombinant human NF-kappaB-inducing Kinase (NIK/MAP3K14) (Homo sapiens)
Sequence (Q99558 whole entry): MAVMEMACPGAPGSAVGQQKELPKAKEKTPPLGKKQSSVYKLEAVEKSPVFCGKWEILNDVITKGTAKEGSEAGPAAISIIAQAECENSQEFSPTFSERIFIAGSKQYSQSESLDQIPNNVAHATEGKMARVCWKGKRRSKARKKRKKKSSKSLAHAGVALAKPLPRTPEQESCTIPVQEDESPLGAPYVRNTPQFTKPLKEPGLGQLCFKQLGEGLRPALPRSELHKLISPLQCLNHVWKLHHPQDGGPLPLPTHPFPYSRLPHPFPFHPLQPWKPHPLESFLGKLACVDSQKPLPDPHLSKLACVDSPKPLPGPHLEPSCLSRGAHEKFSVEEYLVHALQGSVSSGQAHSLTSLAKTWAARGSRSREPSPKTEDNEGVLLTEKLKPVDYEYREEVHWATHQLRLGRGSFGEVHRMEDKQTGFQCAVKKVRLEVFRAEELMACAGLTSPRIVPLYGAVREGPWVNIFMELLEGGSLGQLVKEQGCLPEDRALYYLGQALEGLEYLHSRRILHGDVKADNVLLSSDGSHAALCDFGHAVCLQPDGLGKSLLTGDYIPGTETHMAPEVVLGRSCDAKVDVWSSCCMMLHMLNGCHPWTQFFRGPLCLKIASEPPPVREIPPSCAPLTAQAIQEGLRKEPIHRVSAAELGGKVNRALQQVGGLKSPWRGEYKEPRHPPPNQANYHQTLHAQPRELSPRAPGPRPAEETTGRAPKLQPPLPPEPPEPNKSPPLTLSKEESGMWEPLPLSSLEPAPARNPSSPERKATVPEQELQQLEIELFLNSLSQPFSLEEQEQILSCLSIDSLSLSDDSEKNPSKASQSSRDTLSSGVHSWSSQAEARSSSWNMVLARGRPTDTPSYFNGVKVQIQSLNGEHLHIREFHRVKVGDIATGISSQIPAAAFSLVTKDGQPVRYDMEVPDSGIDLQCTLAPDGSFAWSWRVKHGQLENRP
test_details: Inhibition of auto-phosphorylation of recombinant human NIK/MAP3K14 activity (AlphaScreen)
Type: biochemical
condition_details: 25 microM ATP, averaged over all measurements on all batches
measure_name: IC50

| molecule | reported_result |
| --- | --- |
| COCCCc1ncc(C)cc1Nc1nccc(-c2cc(C#N)c3c(c2)[C@@](C)(CO)CN3)n1 [Compound 177] | 5.5 nM |
| Cc1ncc(C#N)cc1Nc1nccc(-c2cc(C#N)c3c(c2)[C@@](C)(CO)CN3)n1 [Compound 50] | 1.3 nM |
| COc1ncc(Cl)cc1Nc1nccc(-c2cc(C#N)c3c(c2)[C@@](C)(CO)CN3)n1 [Compound 14] | 5.5 nM |
| CN(C)C(=O)COc1ncc(Cl)cc1Nc1nccc(-c2cc(C#N)c3c(c2)[C@@](C)(CO)CN3)n1 [Compound 52] | ~1.48 nM |
| Cc1ncc(Nc2nccc(-c3cc(C#N)c4c(c3)[C@@](C)(CO)CN4)n2)c(OCC(=O)N(C)C)n1 [Compound 144] | 24 nM |
| Cc1nc(C)c(Cl)c(Nc2nccc(-c3cc(C#N)c4c(c3)[C@@](C)(CO)CN4)n2)n1 [Compound 132] | 12.9 nM |
| Cc1cc(Nc2nccc(-c3cc(C#N)c4c(c3)[C@@](C)(CO)CN4)n2)c(C)nc1OCC1(C)COC1 [Compound 159] | 5.6 nM |
| COCCOc1ncc(Cl)cc1Nc1nccc(-c2cc(C#N)c3c(c2)[C@@](C)(CO)CN3)n1 [Compound 39] | 8.5 nM |
| COc1ccncc1Nc1nccc(-c2cc(C#N)c3c(c2)[C@@](C)(CO)CN3)n1 [Compound 37] | 1.8 nM |
| COc1nc(CC(C)C)c(Nc2nccc(-c3cc(C#N)c4c(c3)[C@@](C)(CO)CN4)n2)cc1C [Compound 161] | 28.2 nM |
| C[C@]1(CO)CNc2c(C#N)cc(-c3ccnc(Nc4cccnc4OC[C@H]4CCCO4)n3)cc21 [Compound 43] | 4 nM |
| C[C@]1(CO)CNc2c(C#N)cc(-c3ccnc(Nc4cccnc4O[C@H]4CCCOC4)n3)cc21 [Compound 26] | 4.1 nM |
| Cc1cc(Nc2nccc(-c3cc(C#N)c4c(c3)[C@@](C)(CO)CN4)n2)c(=O)n(C)c1 [Compound 9i] | 1 nM |
| CN1CCC(Oc2ncc(Cl)cc2Nc2nccc(-c3cc(C#N)c4c(c3)C(C)(CO)CN4)n2)CC1 (stereo not drawn) [Compound 15] | 2.9 nM |
| COc1ncc(Cl)cc1Nc1nccc(-c2cc(C#N)c3c(c2)C(C)(COCCN2CCOCC2)CN3)n1 (stereo not drawn) [Compound 121] | 117 nM |
| CN1CCCC(COc2ncc(Cl)cc2Nc2nccc(-c3cc(C#N)c4c(c3)[C@@](C)(CO)CN4)n2)C1 (single isomer, unassigned) [Compound 55] | 3.8 nM |
| Cc1cnc(OCC2COCCN2C)c(Nc2nccc(-c3cc(C#N)c4c(c3)[C@@](C)(CO)CN4)n2)c1 (single isomer, unassigned) [Compound 148] | 8.5 nM |
| C[C@]1(CO)CNc2c(C#N)cc(-c3ccnc(Nc4cccn(CC(O)CO)c4=O)n3)cc21 (stereo partly drawn) [Compound 31i] | 3.3 nM |
| CC1(C)CNc2c(C#N)cc(-c3ccnc(Nc4cc(Cl)cnc4C(=O)N4CCC(O)C4)n3)cc21 (stereo not drawn) [Compound 180] | 339 nM |
| CCOc1ncccc1Nc1nccc(-c2cc(C#N)c3c(c2)C(C)(CO)CN3)n1 (stereo not drawn) [Compound 16] | 3.8 nM |
| Cc1cnc(OCC2CC2)c(Nc2nccc(-c3cc(C#N)c4c(c3)[C@@](C)(CO)CN4)n2)c1 [Compound 86] | 12 nM |
| CC1(CO)CNc2c(C#N)cc(-c3ccnc(Nc4cncnc4)n3)cc21 (stereo not drawn) [Compound 128] | 6.3 nM |
| COc1ncc(Cl)cc1Nc1ncc(F)c(-c2cc(C#N)c3c(c2)C(C)(CO)CN3)n1 (stereo not drawn) [Compound 102] | 6.5 nM |
| C[C@]1(CO)CNc2c(C#N)cc(-c3ccnc(Nc4cc(C#N)cnc4CCC4CC4)n3)cc21 [Compound 64] | 4.7 nM |
| COc1cnccc1Nc1nccc(-c2cc(C#N)c3c(c2)[C@@](C)(CO)CN3)n1 [Compound 20] | 0.9 nM |
| Cc1nccnc1Nc1nccc(-c2cc(C#N)c3c(c2)[C@@](C)(CO)CN3)n1 [Compound 163] | 34.7 nM |
| Cc1ncc(Nc2nccc(-c3cc(C#N)c4c(c3)[C@@](C)(CO)CN4)n2)c(OCC2CCCO2)n1 (single isomer, unassigned) [Compound 137] | 16.2 nM |
| Cc1cc(Nc2nccc(-c3cc(C#N)c4c(c3)[C@@](C)(CO)CN4)n2)c(=O)n(CCN2CC(F)(F)C2)c1 [Compound 17i] | 1.9 nM |
| CC1(CO)CNc2c(C#N)cc(-c3nc(Nc4cc(Cl)cnc4OC4CCOCC4)ncc3F)cc21 (stereo not drawn) [Compound 105] | 30.9 nM |
| COCCNc1nc(OC(C)C)c(Nc2nccc(-c3cc(C#N)c4c(c3)C(C)(CO)CN4)n2)cc1Cl (stereo not drawn) [Compound 13] | 28.8 nM |
